// reported pKd per item
biological target: GRASP, Q7Z6J2; experiment: holdup assay; set-up: key: below the threshold = too weak to quantify, mostly under pKd 3.1 to 4; settings: plain residues with an end cap or a label only (N-terminal biotin on a linker: ttds)
Sequence (Q7Z6J2 96-193): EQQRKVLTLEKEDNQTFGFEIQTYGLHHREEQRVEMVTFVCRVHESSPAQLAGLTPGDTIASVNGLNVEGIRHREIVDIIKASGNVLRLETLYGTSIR

| binder | pKd |
| --- | --- |
| RHTTSTETAV [HPV30-E6, P36809] | 3.96 |
| EMDRRPATVV [PLCB4, Q15147] | 4.01 |
| SSLQSLETSV [ATP2B4, P23634] | 3.6 |
